These entries and their values trace back to patent US20110274692A1.

ASSAYED SYSTEM: T1, INS/INSR complex (human, UniProt P06213 28-1382; P01308 25-110, limits assumed)
T1 construct: cells carrying INSR pre-exposed to human insulin (150 nM for CHO-K1 hINSR cells); also called R-L; INSR with insulin
ASSAY SUMMARY: ratio of the value for R to the value for R-L, Table 2
MEASURED ENDPOINT: KD ratios (R against R-L)

- BINDER: "Ab062 (antibody, V domains shown) VH: QVQLQQWGAGLLKPSETLSLTCAVYGGSFSGYYWSWIRQPPGKGLEWIGEINHSGSTNYNPSLKSRVTISVDTSKNQFSLKLSSVTAADTAVYYCARGPSGWYIREFDYWGQGTLVTVSS VL: QSVLTQPPSVSGAPGQRVTISCTGSSSNIGAGYDVHWYQQLPGTAPKLLIYGNSNRPSGVPDRFSGSKSGTSASLAITGLQAEDEADYYCQSYDSSLSGSGVFGGGTKVTVL"
  KD ratios (R against R-L): 1.1
- BINDER: "Ab080 (antibody, V domains shown) VH: EVQLVESGGGVVQPGGSLRLSCAASGFTFDDYAMHWVRQAPGKGLEWVSLISWDGGSTYYADSVKGRFTISRDNSKNSLYLQMNSLRAEDTALYYCAKARGVVIIDYWGQGTLVTVSS VL: EIVLTQSPGTLSLSPGERATLSCRASQSLSSSFLAWYQQKPGQAPRLLIYGAGSRATGVPDRFSGSGYGTDFSLTISRLELEDFAVYYCQQYDRSQITFGQGTRLEIK"
  KD ratios (R against R-L): 17.6
- BINDER: "Ab079 (antibody, V domains shown) VH: QMQLVQSGAEMKKPGASVKVSCKASGYSFSDYGITWVRQAPGQGPEWMGWISGYNGNTNYAQKFQDRVTMTTDTSTSTAYMELRSLKSDDTAVYFCARARGVWMFDNWGQGTLVTVSS VL: AIRMTQSPSTLSASVGDRVTITCRASQSISTWLAWYQQKPGKAPKLLIYTTSTLESGVPSRFSGSRSGTEFTLTISSLQPDDFATYYCQQYNSYPLTFGGGTKVEIK"
  KD ratios (R against R-L): 19.4

Pending binder:
Look up KD ratios (R against R-L) for this binder: Ab037 (antibody, V domains shown) VH: EVQLLESGGGLVQPGGSLRLSCAASGFTFSSYEMNWVRQAPGKGLEWVSSISSSSRYADVANSVVGRFTISRDNSKNTLYLQMNSLRAEDTAVYYCARGEWLDHFDYWGQGTLVTVSS VL: QSVLTQPPSASGTPGQRVTISCSGSSSNIGNSAVNWYQQLPGTAPKLLIYDNNKRPSGVPDRFSGSKSGTSASLAISGLRSEDEADYYCQVWDSGTAVFGGGTKLTVLG
1.4
